B1: TPR t1 (parent)
chain: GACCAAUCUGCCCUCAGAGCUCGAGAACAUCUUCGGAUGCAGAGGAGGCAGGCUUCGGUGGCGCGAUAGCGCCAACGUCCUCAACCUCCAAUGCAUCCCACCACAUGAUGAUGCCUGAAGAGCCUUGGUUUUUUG

variants of: B1; assay: polymerase ribozyme fitness, log enrichment relative to wild type (log ratio); higher = more active; in vitro selection for triplet polymerase activity
measurement kind: polymerase ribozyme fitness (log ratio)
Answers are plain numbers.

// worked examples, polymerase ribozyme fitness (log ratio) included
sequence_text="GACCAAUCUGCCCUCAGAGCUCGAGAACAUCUUCGGAUGCAGAGGAGGCAGGCUUCGGUGGCGCGAUAGCGUCAACGUCCUCAACCUCCAAUGCAUCCCACCACAUGAUGAUGCCUGGAGAGCCUUGGUUUUUUG [C72U A118G]" experimental_result=-0.902
sequence_text="GACCAAUCUGCCCUUAGAGCUCGAGAACAUCUUCGGGUGCAGAGGAGGCAGGUUUCGGUGGCGCGAUAGCGCCAACGUCCUCAACCUCCAAUGCAUCCCACCACAUGAUGAUGCCCGAAGAGCCUUGGUUUUUUG [C15U A37G C53U U116C]" experimental_result=-2.52
sequence_text="GACCAAUGUGCCCUCAGAGCUCGAGAACAUCUUCGGAUGCAGAUGAGGCAGGCUUCGGUGGCGCGAUAGCGCCAACGUCCUCAACCUCCAAUGCAUCCCACCACAUGAUGAUGCCUGAAGAGCCUUGGUUUUUUG [C8G G44U]" experimental_result=-0.116
sequence_text="GACCAAUCUGCUCUCAGAGCUCGAGAACAUCUUCGGAUGCAGAGGAGGCAGACUUCGGUGGCGCGAUAGCGCCAACGUCCUCAACCUCCAAUGCAUCCCACCACAUGAUGAAGCCUGAAAAGCCUUGGUUUUUUG [C12U G52A U112A G120A]" experimental_result=1.03
sequence_text="GACCAAUCGGCCCUCAGAGCUCGAGAACAUCUUCGGAUGCAGAGGAGGCAGGCUUCGGUGUCGCGAUAGCGCCAACAUCCUCAACCUCCAAUGCAUGCCACCACAUGAUGAUGCCUGAAGAGCCUUGGUCUUUUG [U9G G61U G77A C97G U130C]" experimental_result=-5.47
sequence_text="GACCAAUCUGCCCUCAGAGCUCGAGAACAUCUUCGGAUGCAGAGGAGGCAGGCUUCGGUGGCGCGAUAGCGCCAACGCCCUCAACCUCCAAUGCAUCCCACCACAUGAUGAUGCUUGAAGAGCCUUGGUUUUUUG [U78C C115U]" experimental_result=0.0691

# return polymerase ribozyme fitness (log ratio) for each item in the list
1. GACCAAUCUGCCCUCAGAGCUCGAGAACAUCUUCGGAUGCAGAGGAGGCGGGCUUCGGUGGCGCGAUAGCGCCAACGUCCUCAACCUCCAAUGCAUCCCACCACAUGAUGAUGCCUGAAGAGACUUGGUUUUUUG [A50G C123A]
2. GACCAAUCUGGCCUCAGAGCUCGAGAGCAUCUUCGGAUGCAGAGGAGGCAGGCUUCGGUGGCCCGAUAGCGCCAACGUCCUCAACCUCCAAUACAUCCCACCACAUGAUGAUGCCUGAAGAGCCUUGGUUUUUUG [C11G A27G G63C G93A]
3. GACCAAUCUGACCUCAGAGCUCGAGAACAUCUUCGGAUGCAGAGGAGGCAGGCUUCGGUGGCGCGAUAGCGCCAACGUCCUCAACCUCCAAUGCAUCCCACCACAUGAUGUUGCCUGAAGAGCCUUGGUUUUUUG [C11A A111U]
4. GACCAAUCUGCCCUCAGAGCUCGAGAAUAUCUUCGGAUGUAGAGGAGGCACGCUUCGGUGGCGCGAUAGCGCCAAAGUCCUCAACCUCCAAUGCAUCCCACCACAUGAUGAUGCCUGAAGAGCCUUGGUUUUUUG [C28U C40U G51C C76A]
5. GACCAAUCUGCCCUGAGAGCUCGAGAACAUCUUCGGAUGCAGAGGAGGCAGGCUUCGGUGGCCCGAUAGCGCCAACGUCCUCACCCUCCAAUGCAUCCCACCACAUGAUGAUGCCUGAAGAGCCUUGGUUUUUUG [C15G G63C A84C]

Found:
1: 0.295; 2: -3.72; 3: -4.43; 4: -6.21; 5: -4.12

Source of measurements: the RNAGym collection of RNA variant scans (doi:10.1073/pnas.2313332121)
